- Target entity: BChE (EC 3.1.1.8, from horse serum) (Equus caballus, UniProt P81908)
- Construct: BChE (EC 3.1.1.8, from horse serum); purchased Sigma-Aldrich; host or cells: horse serum
- Sequence (P81908 whole entry): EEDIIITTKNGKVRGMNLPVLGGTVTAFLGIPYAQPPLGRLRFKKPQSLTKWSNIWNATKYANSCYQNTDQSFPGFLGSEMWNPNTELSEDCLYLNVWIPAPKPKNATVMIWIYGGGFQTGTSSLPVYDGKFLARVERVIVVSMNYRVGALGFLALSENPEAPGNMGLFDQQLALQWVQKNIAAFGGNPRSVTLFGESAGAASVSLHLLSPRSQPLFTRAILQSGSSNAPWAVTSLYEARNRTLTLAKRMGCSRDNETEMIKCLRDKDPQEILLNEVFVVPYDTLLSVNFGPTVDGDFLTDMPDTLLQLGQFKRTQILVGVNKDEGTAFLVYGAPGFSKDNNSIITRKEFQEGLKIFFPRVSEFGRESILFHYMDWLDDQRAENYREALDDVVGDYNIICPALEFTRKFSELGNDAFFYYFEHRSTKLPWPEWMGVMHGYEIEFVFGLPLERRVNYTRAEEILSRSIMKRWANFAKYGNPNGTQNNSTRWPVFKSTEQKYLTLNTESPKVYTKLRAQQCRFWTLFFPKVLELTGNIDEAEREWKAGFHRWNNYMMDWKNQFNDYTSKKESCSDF
- Run description: biochemical
- Details: means ± SD, at least three independents
Reported IC50 values are given for each entry in this list.
Please state the figure in µM; there is no need to write the unit.

1) COc1cc2c(Nc3ccccc3Cl)c([N+](=O)[O-])cnc2cc1OCCCN1CCOCC1 [11b]
130
2) COc1cc2c(Nc3ccccc3)c([N+](=O)[O-])cnc2cc1OCCCN1CCOCC1 [11a]
80.9
3) COc1cc2c(Nc3ccccc3)c([N+](=O)[O-])cnc2cc1OCCN1CCOCC1 [11g]
28.4
4) COc1cc2c(Nc3cccc(Cl)c3)c([N+](=O)[O-])cnc2cc1OCCCN1CCOCC1 [11c]
114
5) COc1cc2c(Nc3cccc(Cl)c3)c([N+](=O)[O-])cnc2cc1OCCN1CCOCC1 [11i]
111

Request: IC50, test system BChE (EC 3.1.1.8, from horse serum) (Equus caballus, UniProt P81908), entry COc1cc2c(Nc3ccccc3Cl)c([N+](=O)[O-])cnc2cc1OCCN1CCOCC1 [11h]
81.1

Request: IC50, test system BChE (EC 3.1.1.8, from horse serum) (Equus caballus, UniProt P81908), entry COc1cc2c(Nc3ccc(Cl)cc3)c([N+](=O)[O-])cnc2cc1OCCCCN1CCOCC1 [11p]
98.1

Request: IC50, test system BChE (EC 3.1.1.8, from horse serum) (Equus caballus, UniProt P81908), entry COc1cc2c(Nc3ccc(Cl)cc3)c(N)cnc2cc1OCCCN1CCOCC1 [12d]
145

----------
Here we list compounds with their recorded Ki when tested on AChE (Electrophorus electricus).
Sequence (O42275 24-633): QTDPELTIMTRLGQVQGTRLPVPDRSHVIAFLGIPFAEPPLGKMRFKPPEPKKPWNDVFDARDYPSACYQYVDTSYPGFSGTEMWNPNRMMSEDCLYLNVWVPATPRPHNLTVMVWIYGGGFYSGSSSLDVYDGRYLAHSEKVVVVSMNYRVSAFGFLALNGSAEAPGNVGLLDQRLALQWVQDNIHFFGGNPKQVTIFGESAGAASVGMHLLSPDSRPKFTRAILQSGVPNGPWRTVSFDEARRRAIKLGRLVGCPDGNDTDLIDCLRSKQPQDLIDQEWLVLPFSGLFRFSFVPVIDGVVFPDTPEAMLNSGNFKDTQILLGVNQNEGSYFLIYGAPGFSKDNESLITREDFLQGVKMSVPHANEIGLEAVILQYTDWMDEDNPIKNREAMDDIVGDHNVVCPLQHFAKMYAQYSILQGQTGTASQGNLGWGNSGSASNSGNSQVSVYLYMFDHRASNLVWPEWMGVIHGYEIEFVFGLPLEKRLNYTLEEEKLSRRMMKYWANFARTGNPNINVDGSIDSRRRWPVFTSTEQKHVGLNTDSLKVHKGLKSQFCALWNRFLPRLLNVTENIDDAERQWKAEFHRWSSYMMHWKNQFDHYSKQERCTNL

1. COc1cc2c(Nc3ccccc3)c([N+](=O)[O-])cnc2cc1OCCN1CCOCC1 [11g]
640 nM

We next turn to a different compound, shown below.
Ki lookup needed for COc1cc2c(Nc3ccccc3)c([N+](=O)[O-])cnc2cc1OCCCN1CCOCC1 [11a] , thanks.
2030 nM

----------
Reported pIC50 values are given for each entry in this list.
- Target entity: AChE (EC 3.1.1.7, from electric eel) (Electrophorus electricus, UniProt O42275)
- Construct: purchased Sigma-Aldrich
- Sequence (O42275 24-633): as above
- Run description: biochemical
- Details: means ± SD, at least three independents
Quick note: pIC50 means taking -log10 of the concentration in moles per liter.

pIC50 lookup needed for COc1ccc(Nc2c([N+](=O)[O-])cnc3cc(OCCCCN4CCOCC4)c(OC)cc23)cc1 [11r] , thanks.
4.72

pIC50 lookup needed for COc1cc2c(Nc3ccc(O)cc3)c([N+](=O)[O-])cnc2cc1OCCCCN1CCOCC1 [11q] , thanks.
4.43

pIC50 lookup needed for COc1cc2c(Nc3ccccc3Cl)c([N+](=O)[O-])cnc2cc1OCCN1CCOCC1 [11h] , thanks.
5.19

pIC50 lookup needed for COc1cc2c(Nc3cccc(Cl)c3)c([N+](=O)[O-])cnc2cc1OCCCN1CCOCC1 [11c] , thanks.
4.49

pIC50 lookup needed for COc1ccc(Nc2c([N+](=O)[O-])cnc3cc(OCCCN4CCOCC4)c(OC)cc23)cc1 [11f] , thanks.
4.89

pIC50 lookup needed for COc1cc2c(Nc3ccc(Cl)cc3)c([N+](=O)[O-])cnc2cc1OCCN1CCOCC1 [11j] , thanks.
5.06

pIC50 lookup needed for COc1cc2c(Nc3ccccc3)c(N)cnc2cc1OCCCN1CCOCC1 [12a] , thanks.
5.04

pIC50 lookup needed for COc1cc2c(Nc3ccccc3Cl)c([N+](=O)[O-])cnc2cc1OCCCN1CCOCC1 [11b] , thanks.
4.90

pIC50 lookup needed for COc1cc2c(Nc3ccc(O)cc3)c([N+](=O)[O-])cnc2cc1OCCN1CCOCC1 [11k] , thanks.
4.73
